B1: Pistol ribozyme (parent)
chain: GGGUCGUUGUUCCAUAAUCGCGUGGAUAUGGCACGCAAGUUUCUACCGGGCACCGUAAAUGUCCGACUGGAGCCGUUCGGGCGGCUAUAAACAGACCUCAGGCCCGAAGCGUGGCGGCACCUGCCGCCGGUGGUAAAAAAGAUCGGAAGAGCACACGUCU

# Variants of: B1
# Protocol: aptazyme ON/OFF ratio, guanine; higher = stronger switching; co-transcriptional cleavage with and without guanine
Form field: aptazyme ON/OFF ratio (one value per entry).

| Variant String | aptazyme ON/OFF ratio |
| --- | --- |
| U7G U8A U10G | 1.28 |
| U7A U8G U10C U11C C12U C13U | 1.17 |
| U7C U8A G9A U10A U11A C13U | 1.1 |
| U7G U8C U10G U11C C12A C13U | 1.33 |
| U7G G9U U11C C12G C13A | 1.22 |
| U8A G9A U11G | 1.44 |
| U7G U8A U11C C12G C13U | 1.32 |
| U7C U8A G9C U10G C13A | 1.15 |
| U8G G9U U11A C12G C13G | 1.23 |
| U7A U8A G9A U11G C12G C13U | 1.32 |
| U7G U8G C12G C13G | 1.36 |
| U7A U8A G9A U11A C12U | 1.35 |
| U7G U8G G9U U10G U11A C12G | 1.16 |
| U7C U8C G9C U10G U11A C12G | 1.11 |
| U8A G9A U10C C12G C13G | 1.24 |
| U7A G9A U11C C12U C13U | 1.22 |
| U7A G9U U10G U11C C12A C13G | 1.12 |
| U7C U8A U10A C12A C13U | 1.15 |
| U7A U8C G9A U10G C12G C13U | 1.31 |
| U8C C12A C13G | 1.1 |
| U7C G9U U11A | 1.41 |
| U10A U11C C12U | 1.04 |
| U7A U8A G9U U10C U11C C12G C13A | 1.07 |
| U7G U8C G9A U10C U11A C12U C13U | 1.02 |
| U8C G9U U10G C12U | 1.35 |
| U7G U8C G9U C12A | 1.35 |
| U8C G9U U10C U11C C12A C13A | 1.09 |
| U8G U10G C12G C13G | 1.14 |
| U8C G9U U10A U11G C12A C13G | 1.13 |
| U7C U8G G9C U10G U11G C12U C13G | 1.09 |
| U7A U8C C13U | 1.51 |
| U7C U8A G9C U11C C13U | 1.05 |
| U7C U8A G9U U10A U11G C12A | 1.08 |
| U8G G9U U10G U11C C12G C13U | 1.02 |
| U7G U8A U10C U11A C13A | 1.39 |
| U7G U8C G9C U10A U11A C13G | 1.1 |
| U7A U8A U10A U11C C12G | 1.1 |
| U7C G9C U11C C12G C13G | 1.04 |
| U7G U8G G9U U11A C12G C13U | 1.16 |
| U7A U8C G9U U10C U11G C12G C13U | 1.06 |
| U7A U8A G9C C12U C13A | 1.15 |
| U7C U8C U10A U11A C12A C13U | 1.13 |
| U7C U8G G9C U11A | 1.86 |
| U7C U8A G9A U10A U11G C12U | 1.14 |
| U7A U8A G9A U10G U11C | 1.04 |
| U7C U8A G9U U10G U11G C12U C13G | 1.15 |
| U7C U8G G9U U11G C12G C13A | 1.1 |
| U8G G9A U10C U11C C12A | 1.08 |
| U7C U8C C12G C13G | 1.14 |
| U7C U10C C12G C13A | 1.23 |
| U7A U8A G9A U10C C12A C13U | 1 |
| G9C U10A C12U C13G | 1.17 |
| U7C U8A G9A U10A U11A C12A C13A | 1.24 |
| U10A U11G C12U | 1.52 |
| U8G G9A U10A U11G C12A | 1.08 |
| U7A U8G G9A U10G U11A C12A C13U | 1.11 |
| U7C G9C U10G U11A | 1.09 |
| U10A U11C C12A C13G | 1.28 |
| U7G U8C G9A U10A | 3.78 |
| U7A U10A U11G C12A C13G | 1.39 |
| U7G G9C U11G C13U | 1.17 |
| G9C U10C C12U | 1.12 |
| U8A U10G U11A C12A | 1.06 |
| U8G U10A U11A C12U C13A | 1.3 |
| U7C G9C U11C C12G C13A | 1.04 |
| U7G U8G U10A U11G C12G C13G | 1.23 |
| U7A G9C U11C C12A C13A | 1.06 |
| U7G U8C U10A U11A C12U C13A | 1.2 |
| U7G U8G G9U U10G U11C C12G C13A | 1.1 |
| U7A G9U U10C U11A C13A | 1.14 |
| U7A U8G G9A U10G U11G C12G C13G | 1.68 |
| U7G U8C G9A U10A U11C C13U | 1.08 |
| U7C U8A G9C U11C C12G C13U | 1.1 |
| U7C U8A U10G U11C C12U C13G | 1.23 |
| U7C U8G G9C U10A U11C C12U | 1.05 |
| U10A U11C | 1.05 |
| U8A G9U U10A U11C C12G C13G | 1.12 |
| U8C U10C U11C C12G C13A | 1.29 |
| U8C G9U C12A C13U | 1.19 |
| U11G C12G C13U | 1.32 |
| U7G U8G G9A U11C C12A C13U | 1.41 |
| U7C U8A U10G U11A | 1.06 |
| U7G U8G G9A U10G U11A C12A C13A | 1.12 |
| G9C U10C C12U C13U | 1.07 |
| U7G U8C G9A C12G C13G | 1.04 |
| U7A U8A G9A U11G C12U | 1.69 |
| U7C U8G G9U U10C C12U C13U | 1.38 |
| U7C G9A U10G C12G C13U | 1.15 |
| U7C U8C G9A U10G U11G C12G C13U | 1.11 |
| U8A U10C C12G C13A | 1.19 |
| U11C C12U C13A | 1.4 |
